Experiment: Permeability of the compound across blood brain barrier by PAMPA
Assay type: ADME, tissue-based
Conditions: read-out: logBB (converted)
QUANTITY: Kp
In your answer, state the number alone without any accompanying words.

*Q* Query: Kp; subject: `O=S(=O)(/C=C/c1ccc(O)c(O)c1)CCCC1CCCC1`
*A* 0.316

* * *

Biological target: Cholinesterase (Homo sapiens, UniProt P06276)
Sequence (P06276 whole entry): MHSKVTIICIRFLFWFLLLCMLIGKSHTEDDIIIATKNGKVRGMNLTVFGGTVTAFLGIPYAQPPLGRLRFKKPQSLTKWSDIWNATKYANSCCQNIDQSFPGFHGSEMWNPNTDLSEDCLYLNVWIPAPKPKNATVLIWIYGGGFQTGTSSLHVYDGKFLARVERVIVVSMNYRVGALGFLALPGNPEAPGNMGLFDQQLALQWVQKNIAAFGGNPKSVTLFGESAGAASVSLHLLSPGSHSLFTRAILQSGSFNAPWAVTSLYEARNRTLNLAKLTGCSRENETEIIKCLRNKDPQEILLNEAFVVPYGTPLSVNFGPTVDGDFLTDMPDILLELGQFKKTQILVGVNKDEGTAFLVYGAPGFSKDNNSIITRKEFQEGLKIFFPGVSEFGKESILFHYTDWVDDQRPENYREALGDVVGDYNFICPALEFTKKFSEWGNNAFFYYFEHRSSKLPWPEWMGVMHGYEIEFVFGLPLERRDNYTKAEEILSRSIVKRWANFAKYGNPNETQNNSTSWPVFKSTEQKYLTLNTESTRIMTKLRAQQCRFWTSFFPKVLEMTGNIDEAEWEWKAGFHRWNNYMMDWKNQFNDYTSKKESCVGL
QUANTITY: Ki (nM)
Numbers only here, please. The scale is nM.

*Q* Query (compound): `COc1ccccc1/C=C/C=C(\Br)S(=O)(=O)F` ; field requested: Ki
*A* 29

* * *

System: CCRF-CEM
Assay: Antiproliferative activity against human CEM cells treated for 96 hrs
Format: functional, cell-based
QUANTITY: IC50 (µM)
Field: numeric (µM). Do not append units.

*Q* Report IC50 for `CC(=O)OC[C@H]1O[C@@H](n2cc(/C(Cl)=C\S(=O)(=O)c3ccc(C)cc3)c(=O)[nH]c2=O)C[C@@H]1OC(C)=O` tested on CCRF-CEM.
*A* 11

* * *

System: NCI-H1975
Assay: Cytotoxicity against human NCI-H1975 cells expressing EGFR T790 mutant incubated for 72 hrs by MTT assay
Format: functional, cell-based
Conditions: NCI-H1975, 72 h
QUANTITY: pIC50
// pIC50 is dimensionless: -log10 of concentration (M)

*Q* Which pIC50 value belongs to `COc1cc(/C=C/S(=O)(=O)c2ccccc2)cc(OC)c1OC` ?
*A* 4.52

* * *

Test system: MDA-MB-231
Assay: Anticancer activity against human MDA-MB-231 cells
Format: functional, cell-based
QUANTITY: pIC50
Kindly note that pIC50 refers to -log10 of the concentration in mol/L and answer with the value alone.

*Q* Data request, read-out pIC50, for `O=S(=O)(F)/C=C/C=C/c1ccc(/C=C/S(=O)(=O)F)cc1`
*A* 5.49

* * *

Target: UniProtKB P81908
Sequence (P81908 whole entry): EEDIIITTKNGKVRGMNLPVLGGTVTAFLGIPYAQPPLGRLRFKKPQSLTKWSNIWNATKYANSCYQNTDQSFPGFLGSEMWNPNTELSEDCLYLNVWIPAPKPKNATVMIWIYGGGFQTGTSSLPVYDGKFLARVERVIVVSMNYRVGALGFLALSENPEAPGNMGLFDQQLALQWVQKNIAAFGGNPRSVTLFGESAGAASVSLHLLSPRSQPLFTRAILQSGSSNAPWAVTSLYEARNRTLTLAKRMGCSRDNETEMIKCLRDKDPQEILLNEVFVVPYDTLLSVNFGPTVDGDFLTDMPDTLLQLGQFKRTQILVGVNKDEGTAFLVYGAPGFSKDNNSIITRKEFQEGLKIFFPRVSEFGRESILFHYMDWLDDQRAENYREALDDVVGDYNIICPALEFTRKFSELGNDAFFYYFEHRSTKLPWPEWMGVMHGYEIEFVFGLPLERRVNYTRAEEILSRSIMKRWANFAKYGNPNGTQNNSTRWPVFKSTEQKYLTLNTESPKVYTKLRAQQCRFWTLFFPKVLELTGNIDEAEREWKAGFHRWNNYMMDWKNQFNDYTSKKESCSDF
Test: Inhibition of horse serum BuChE preincubated for 5 mins followed by BuCh addition measured after 5 mins by Ellman's method
QUANTITY: IC50
Give the number first and the unit second.

*Q* Sample `COc1ccccc1/C=C/C=C(\Br)S(=O)(=O)F` — what was its IC50?
*A* 21 nM
